Read-out: Interferon-gamma inducible Protein 10 (IP10), CXCL10 (gene 3627)
protocol_description: BSK_hDFCGF_IP10: BioMAP Diversity Plus: hDFCGF Assay for Interferon-gamma inducible Protein 10 (IP10) Biomarker Activity (AID 2283053)
test_conditions: primary human foreskin fibroblasts; actives raise or lower the signal
The source made the active and inactive calls. Rule for the calls: active = hit-call score of the fitted dose curve at least 0.9, where 1 is the maximum; inactive = score below 0.9.
Returns: one label drawn from 1 (yes) for active, 0 (no) for inactive

smiles_str: O=C(OCCCCCCOC(=O)c1ccccc1)c1ccccc1
class: 0 (no)
--
smiles_str: COc1cccc([C@H](O)C2CCN(CCc3ccc(F)cc3)CC2)c1OC
class: 0 (no)
--
smiles_str: CCCCCCCCN(C)CCCCCCCC
class: 0 (no)
--
smiles_str: CCCCCCCCCCCO
class: 1 (yes)
--
smiles_str: CCCCCCCCCCCCO
class: 1 (yes)

For O=C1c2ccccc2C(=O)N1CCc1noc(-c2ccc(CN3CCCCCC3)s2)n1 , what call appears in the results of this test?
0 (no)

For O=c1c(-c2ccc(O)cc2)coc2cc(O)cc(O)c12 , what call appears in the results of this test?
1 (yes)
